target_system: T1, hpTEN N53A/S55A/R110A/E119A (Hansenula polymorpha (Ogataea …, UniProt R4IT35 1-159, N53A;S55A;R110A;E119A))
T1 sequence: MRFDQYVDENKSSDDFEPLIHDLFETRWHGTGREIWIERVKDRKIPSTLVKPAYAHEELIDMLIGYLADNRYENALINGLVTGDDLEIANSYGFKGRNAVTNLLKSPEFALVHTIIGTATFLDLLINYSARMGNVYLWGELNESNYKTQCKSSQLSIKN
experimental_protocol: MST
pKd: −log10 of the molar value.
property_name: pKd

Record request: pKd value, item FAM-E8 fork (DNA:RNA) DNA: CTGTTTCGGGTGGC RNA: GCCACCCUUCGUCA
~3.52
